- System: PXR:RXRa (NR concentration 270 nM, RXRa partner concentration 90 nM)
- measurementDescription: PBM binding z-score (relative to random genomic background probes); higher = stronger binding; sequences stand for … in GC…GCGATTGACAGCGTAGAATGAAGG
In this section we review reported PBM binding z-score values for a set of sequences.
readoutKind: PBM binding z-score

sequence | readoutKind | numericResult
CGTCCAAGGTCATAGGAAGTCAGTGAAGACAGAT | PBM binding z-score | 3.99
CAGACTAGGTCAGGGCCAGTATAGGAGGAACGTT | PBM binding z-score | 0.0784
ATCTCTGGGTAAAAGTTCAGTGAATCCCGAGGAT | PBM binding z-score | 2.03
TCTATCAGTTGATTAGGGCAACCGAAACAGCGGA | PBM binding z-score | 0.154
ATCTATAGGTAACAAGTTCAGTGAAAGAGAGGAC | PBM binding z-score | 1.72
TAGCCTAGGTCAGATCGGGCCAGTAAACGCTATA | PBM binding z-score | 1.12
CCTCGGAGGACAGAAGGTCATAGCTGTCCGCTTT | PBM binding z-score | 3.22
ATCTCTAGGTAACAAGTTCAATGAAAGAGAGGAC | PBM binding z-score | 2.68
AATACAGGGTCACTAGCCCAGAGTAGGTACGAAT | PBM binding z-score | 2.92
ATATGTAGGTTAAGGTTCATTCAGGTTGGTTCGC | PBM binding z-score | 4.08
AGTCAAATTTCAGGACGAGGTAACGTAAAGCACG | PBM binding z-score | -0.111
CCTTACGGGTCACTCCAGGTTAGAGCATCGGAGT | PBM binding z-score | 4.28
ATCGAAAGATCGAAGGTGAGTATACCCACCCGAA | PBM binding z-score | 0.0692
CCTAGGAGGCCAGGGTCACTCAAGCATTTCGCTT | PBM binding z-score | 2.28
CGTCCAAGGTCAATGCTAGGTCCGTGAAAGCATT | PBM binding z-score | 3.8
TCGAGTAGGTTAGGGGGATTCAGAATGGCGTCGA | PBM binding z-score | 1.2
TGAGTGAGGTTATAAGATCAGGGAACGTTGCAAA | PBM binding z-score | 0.754
AGAATGAGGTTATACGTAGATCAAGGAAGAAAGT | PBM binding z-score | 1.25
TTACCAAGGTGAAGGTCGTTCATCCCTCTGTAGA | PBM binding z-score | 1.9
TCGAGTAGGTTAGTCGGGGCAATCAGCCAACATA | PBM binding z-score | 0.138
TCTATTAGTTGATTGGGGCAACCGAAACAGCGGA | PBM binding z-score | 0.811
GGAACGAGGGCATTCGAGTAGATAGCATGGCGAT | PBM binding z-score | 0.557
CAAACTAGGTTAAGAGGTCAAAGTCCGCTTCCCG | PBM binding z-score | 5.64
GCTTGTAGATGAAGGTTAAGAAAGACTAAGCTAA | PBM binding z-score | 0.0589
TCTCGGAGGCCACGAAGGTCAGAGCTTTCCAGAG | PBM binding z-score | 2.19
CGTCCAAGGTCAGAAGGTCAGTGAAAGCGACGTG | PBM binding z-score | 4.48
ATCTCTAGGTAAAGTGCAGTGAAAGATCGATAGA | PBM binding z-score | -0.0343
TCATATAGGTAACGGTGAAAGTCGAACGATATGA | PBM binding z-score | 0.0146
ACTATTAGCTGACTTAGGGCAACCGATACGACGC | PBM binding z-score | -0.173
ATATGTAGGTTACATCCTGGTCATTCAGGCTATG | PBM binding z-score | 0.747
CTCGAAAGCTCGTGCTCAGGTGAGTATACCAAAC | PBM binding z-score | -0.746
CCTTACGGATCACTCCAGGTTATAGCATCGGAGT | PBM binding z-score | 0.823
TCATATAGGTAAATGCGAGGTGAAAGTCCGATCT | PBM binding z-score | 1.1
GATACAGGGTCAGCTAGAGGCCAGAGGATGGAAA | PBM binding z-score | 3.12
CCTATTAGTTGACGATAAGGGCAACCGAAGCTCG | PBM binding z-score | 0.261
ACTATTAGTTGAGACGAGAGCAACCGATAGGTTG | PBM binding z-score | -0.467
CAAACTAGGTCACCGGAAGATCAAAGTCCGCATG | PBM binding z-score | 2.27
CGTCCAAGGTCATAGGTGGTCAGTGAAGACAGAT | PBM binding z-score | 4.5
CGTCCAAGGTCAAGGTCAGGGAAAGAGACTCGAA | PBM binding z-score | 5.28
GCAGACAGGTGAAACGCTGGTAACTCAGGGTGGC | PBM binding z-score | -0.38
CAAACTAGGTCATAGGTCAAAGTCGAGCCAACCA | PBM binding z-score | 5.05
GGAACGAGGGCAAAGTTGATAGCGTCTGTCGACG | PBM binding z-score | 1.2
ATATGTAGGTTATCGGGTCATTCACTTTGCGCAT | PBM binding z-score | 3.44
TCACATAGGTAATACAGGTGAAAGTCGGCATCTA | PBM binding z-score | 0.746
TTACCAAGGTTAAGGTCGTTGATCCCTCTGTAGA | PBM binding z-score | 3.04
ATCTCTAGGTAACCAAGTTCTGTGAATGCCGAAC | PBM binding z-score | 0.262
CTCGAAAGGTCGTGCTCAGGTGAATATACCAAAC | PBM binding z-score | 3.6
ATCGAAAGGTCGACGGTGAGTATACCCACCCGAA | PBM binding z-score | 2.43
TTTTGTAGATCAGCAGGTTAAGAAAGCTGGCCAA | PBM binding z-score | 0.0195
GTACCAAGGTGAATAGTTCGTTGATGAGTAGGCG | PBM binding z-score | 0.39
TCATATAGGTAAAGGTAAAAGTCGAACGATATGA | PBM binding z-score | 0.53
